# Test system: SNB-75 CNS
# procedure.details: NCI-60 one-dose screen, 48 h (100 = growth as untreated, 0 = no growth, -100 = all killed)
# experimental.setup: 10 µM unless noted
This is part of a sample that, as a whole, favours compounds with a hit. Of some 83,000 tested, about 20% had one in any assay.
For each record, write down the corresponding growth.
Field: numeric (%). Do not append units.

Requested field: growth. Item: NC(=O)c1c(NC(=O)c2ccccc2C(F)(F)F)sc2c1CCC(=O)C2
44.8

Fill blank: measured growth of the molecule COc1cc2oc(-c3cccc(NC(=O)c4cc(N)ccc4Cl)c3)cc(=O)c2c(OC)c1OC is ____.
101

Fill blank: measured growth of the molecule O=C(Nc1ccc2c(ccn2Cc2ccccn2)c1)c1ccnnc1 is ____.
56

I'd like to know its growth. The molecule in question is Cc1ccc(-c2nn(-c3ccccc3)cc2/C=C/C(=O)c2ccc(NC(=O)CCCCCCC(=O)NO)cc2)cc1
102

Name the recorded growth for Cn1ccnc1C(=O)/C=C/c1ccc(NC(=O)c2ccc(F)cc2)cc1 .
46.9

Name the recorded growth for C=C(C)[C@@H]1CC[C@]2(COP(=O)(OCC)OCC)CC[C@]3(C)[C@H](CC[C@@H]4[C@@]5(C)CCCNC(C)(C)[C@@H]5CC[C@]43C)[C@@H]12 .
37

Fill in: growth of NC(N)=Nc1ccc(Nc2cccc(Oc3ccc(Cl)c(C(F)(F)F)c3)c2)cn1 is ___
52.7

Need growth of O=S(=O)(Oc1ccc(-c2nnc(Nc3ccccc3)s2)cc1)C(F)(F)C(F)(F)C(F)(F)C(F)(F)C(F)(F)C(F)(F)F , thanks.
99.9

Can you look up the measured growth of CN1CCN(c2nc(-c3csc(-c4ccccc4)n3)cc3ccccc23)CC1 for me?
70.5

Need growth of CC(=O)c1ccc(Nc2nc(SCC(C)C)nc(-c3ccccc3)c2C#N)cc1 , thanks.
93.3

growth lookup needed for O=C(NNc1nc2cc(F)ccc2n2c(CO)ccc12)c1cnccn1 , thanks.
42.9

For the molecule shown here, CNC(=O)c1cc(Oc2ccc3nc(NC(=O)c4cccc(OC(F)(F)F)c4)sc3c2)ccn1 , give the reported growth.
45.5

Query: growth; subject: C=CCn1c(SCC(=O)Nc2ccc(C(=O)/C=C/c3cccc([N+](=O)[O-])c3)cc2)nnc1-c1c[nH]c2ccccc12
97

Field request: growth | item: COc1cc(-c2ccc3ncnc(NCc4ccccc4)c3c2)cnc1OC
-17.8

Fill blank: measured growth of the molecule Nc1cc(-c2c[nH]c3ccc(Br)cc23)nc2cc(-c3c[nH]c4ccc(Br)cc34)nn12 is ____.
41.9

# growth lookup, item COc1c(N2CC3CCCNC3C2)c(F)cc2c(=O)c(C(=O)N/N=C/c3c[nH]c4ccccc34)cn(C3CC3)c12 (configuration not stated)
99.5

Fill blank: measured growth of the molecule O=C1C(c2ccccc2)=C(N2CCc3ccccc32)OC1(Cl)Cl is ____.
74.3

growth lookup needed for COc1ccc(NC(=O)CSc2nnc(-c3ccc4nc(-c5ccc(OC)c(OC)c5)[nH]c4c3)o2)cc1OC , thanks.
100

# lookup: growth of O=c1[nH]c(Sc2sc3ccc(Cl)cc3c2CBr)nc(=S)[nH]1
54

Need growth of COc1ccccc1N1CCN(C2=CC(=O)C(C)=C(C)C2=O)CC1 , thanks.
102

Consider the molecule COc1c(N2CC3CCCNC3C2)c(F)cc2c(=O)c(C(=O)N/N=C/c3ccccc3)cn(C3CC3)c12 (configuration not stated) and give its measured growth.
88.7

Name the reported growth value associated with the molecule CCC(NC(c1cc2cccc3ccc4cccc1c4c32)c1nnnn1C(C)(C)C)C1CCCCC1 (configuration not stated)
75.6

Data request, read-out growth, for CC1=NC2=NN3C(=NN2C(c2ccccc2)=C1)N=NC(c1ccc(Br)cc1)=C3c1ccc(Br)cc1
117

Can you look up the measured growth of C=CCOc1cccc(/C=C2\SC(=S)N(C3CC(=O)N(c4ccc(Br)cc4)C3=O)C2=O)c1 (configuration not stated) for me?
120

Field request: growth | item: Cn1cc(CNc2nc3ccc(OC/C(=C/F)CN)cc3o2)ccc1=O
110

Could you tell me which growth is on file for CCCC(=O)NC(c1cccnc1)c1cc(C(C)(C)C)c2cccnc2c1O (configuration not stated) ?
37.4

Which growth value belongs to Cc1ccc(CSc2nc(-c3ccc(Cl)cc3)c(C#N)c(N3CCNCC3)n2)cc1 ?
68.5

I would be grateful if you could share the reported growth for CCCn1cnc2c(c1=N)C(c1ccc(OC)cc1)c1sc3c(CC)cccc3c1O2 (configuration not stated) .
16.5

Looking for the measured growth of NC(=O)c1cccc(-n2ccc3cc(NC(=O)Nc4ccc(N5CCOCC5)c(C(F)(F)F)c4)ccc32)n1 , can you help?
-24.4

What value of growth has been recorded for this entry: C=C(C=O)[C@@H]1CC[C@]2(COC(C)=O)CC[C@]3(C)C(CC[C@@H]4[C@@]5(C)CC[C@H](OC(C)=O)C(C)(C)[C@@H]5CC[C@]43C)[C@@H]12 (some centres not stated)
32.1

Given the molecule N#Cc1c(NC(=O)c2cccc(C(F)(F)F)c2F)sc2c1CCC(=O)C2 , what is its reported growth?
-66.3

Could you tell me which growth is on file for FC(F)(F)c1cc(Nc2cccc(Oc3ccc(NC4=NCCN4)nc3)c2)ccc1Cl ?
10.7

Dear colleague, I am looking for the recorded growth of the following molecule: NC(=O)c1c(NC(=O)c2ccc(F)cc2F)sc2c1CCC(=O)C2
66.8

Which growth value belongs to COc1cccc(O)c1/C=C(/C)c1ccc2c(OC)cccc2[o+]1 ?
97.1

Please look up its growth: COc1ccc2[nH]cc(-c3csc4nc(-c5ccccc5)cn34)c2c1
-4.19

Quick one: growth for CC1(C)[C@@H](O)CC[C@]2(C)[C@H]3CC[C@@H]4[C@H]5[C@H](C(=O)/C=C\c6ccccn6)CC[C@]5(O)CC[C@@]4(C)[C@]3(C)CC[C@@H]12 ?
26.2

Would you mind telling me what growth value was observed for COc1cc(-c2nn(C(C)(C)C)cc2-c2ccnc(NCCCNS(=O)(=O)c3cccc(F)c3)n2)ccc1Cl ?
46.2

====

# Tested on: COLO 205 colon
# procedure.details: NCI-60 one-dose screen, 48 h (100 = growth as untreated, 0 = no growth, -100 = all killed)
# experimental.setup: 10 µM unless noted
The panel holds about 83,000 compounds, 20% with a hit somewhere; the sample as a whole holds those more often.
readout.kind: growth (%)
Reply numerically in %, unit not repeated.

For the record Oc1[nH]c2ccccc2c1Nn1c(N=N/C=c2/ccc3c(c2)C=NN=3)n[nH]c1=S , what value of growth is listed for COLO 205 colon?
30.9

Form field: growth recorded for Cc1cc(C)c2sc(=O)n(Cc3nnc(SCCC(=O)O)o3)c2n1 with COLO 205 colon (enter value)
124

Lab note: need growth with COLO 205 colon for entry COc1ccc(CCN2C(=O)CSC2=S)cc1 , please look it up.
117

Query growth on COLO 205 colon for COc1cccc(C(=O)Nc2cccc(C#Cc3cccc4[nH]nc(N)c34)c2)c1
67.6

Quick check: growth on COLO 205 colon, item O=C(CSc1nc2ccccc2c(=O)n1-c1ccccc1)Nc1cccc(C(=O)/C=C/c2ccccc2Cl)c1 ?
119

====

Please provide measured growth for the entries that follow.
# Tested on: NCI-H226 lung
# procedure.details: NCI-60 one-dose screen, 48 h (100 = growth as untreated, 0 = no growth, -100 = all killed)
# experimental.setup: 10 µM unless noted
This is part of a sample that, as a whole, favours compounds with a hit. Of some 83,000 tested, about 20% had one in any assay.
All answers are understood in %, so give the number only.

Observed growth on NCI-H226 lung for Brc1ccccc1/C=N/Nc1nc(N/N=C/c2ccccc2Br)nc(N2CCOCC2)n1 , please.
95.1

// map CC(=O)Nc1cccc(Nc2nc(N[C@@H](C)c3ccccc3)c3ccccc3n2)c1 to recorded growth (system: NCI-H226 lung)
6.42

Give recorded growth with NCI-H226 lung for the following compound: Cc1ccc(-c2nnc(SCc3ccc(O)c4ncccc34)o2)cc1
45.2

API: value(readout=growth, system=NCI-H226 lung) for record CN1CCC(n2cc(Nc3ncc4c(=O)n(-c5c(Cl)cccc5Cl)cc(Br)c4n3)cn2)CC1
33.9

Value wanted: growth (NCI-H226 lung) of entry CN(C)CCNC(=O)c1ccc(-c2nc3ccc4[nH]ncc4c3c3c2COCC3)cc1
9.31

Tell me reported growth for O=C(NCCN1CCCC1)c1ccc(-c2nc3ccc4[nH]ncc4c3c3c2CCCC3)cc1 , tested with NCI-H226 lung.
13.6

Short answer please: growth, NCI-H226 lung, entry COc1ccc(C2c3sc4c(C)cccc4c3Oc3nc(CC(=O)Nc4ccccc4)[nH]c(=O)c32)cc1 (centres undefined)
65.8

Please state recorded growth (tested on NCI-H226 lung) of CCN1CCN(Cc2cn(-c3ccc(S(N)(=O)=O)cc3)nn2)CC1
96.5

Which growth is reported with NCI-H226 lung for this entry: CS(=O)(=O)c1ccc(-c2nn(-c3ccccc3)cc2/C=N/NC(=O)c2nc(N)n[nH]2)cc1 ?
101

Cited source for all entries: PubChem BioAssay (NCI)
